Sourced from patent US20100273750A1

system: RA synovial membrane cultures; experiment: Spontaneous cytokine release from RA synovial membrane cultures (ELISA); format: cell-based, human; conditions: 5 μg/ml, 24 hours
OBSERVATION TYPE: inhibition of spontaneous TNF production

COMPOUND: Cc1nc2sccn2c(=O)c1CCN1CCC(=C(c2ccc(F)cc2)c2ccc(F)cc2)CC1
OBSERVED RESULT: able to inhibit
--
COMPOUND: CSc1ccc2c(c1)C(N1CCN(C)CC1)Cc1ccccc1S2 (stereo not shown) [methiothepin]
OBSERVED RESULT: able to inhibit

###

system: TLR7/8 ligand R-848 induced TNF; assay: R-848 induced TNF production in primary human macrophages (ELISA); conditions: 5 μg/ml, 30 minutes preincubation, 1 μg/ml R-848 for 6 hours
OBSERVATION TYPE: inhibition of R-848 induced TNF production

COMPOUND: Cc1nc2sccn2c(=O)c1CCN1CCC(=C(c2ccc(F)cc2)c2ccc(F)cc2)CC1 [ritanserin]
OBSERVED RESULT: able to inhibit
//
COMPOUND: CSc1ccc2c(c1)C(N1CCN(C)CC1)Cc1ccccc1S2 (stereo not shown) [methiothepin]
OBSERVED RESULT: able to inhibit
